- Experimental system: T1, cyno PD-1^ECD-hFc protein (cyno monkey, UniProt B0LAJ3 25-167)
- T1 construct: Prepared by the method for Immunogen A; also called Cyno Monkey PD-1^ECD-hFc; cyno monkey PD-1-hFc; not shown: human IgG Fc fragment (hFc) and its junction to the ECD
- T1 sequence (B0LAJ3 entry or part of it limits assumed): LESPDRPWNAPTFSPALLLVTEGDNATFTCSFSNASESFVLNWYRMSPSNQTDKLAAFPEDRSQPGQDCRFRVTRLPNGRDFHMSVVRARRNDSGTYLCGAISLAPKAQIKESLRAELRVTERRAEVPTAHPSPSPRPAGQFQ
- Test protocol: ELISA, coated cyno PD-1ECD-hFc; antibody 0.1 nM
Readout kind: OD450 nm

Binder: chimeric anti-PD-1 antibody 21G8F11 (antibody, V domains shown, Purified from hybridoma of Harbour H2L2 mice: human variable regions, rat constant regions) VH: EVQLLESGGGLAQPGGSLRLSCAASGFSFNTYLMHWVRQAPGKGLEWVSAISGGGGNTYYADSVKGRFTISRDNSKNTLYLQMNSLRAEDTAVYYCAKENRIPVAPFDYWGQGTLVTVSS VL: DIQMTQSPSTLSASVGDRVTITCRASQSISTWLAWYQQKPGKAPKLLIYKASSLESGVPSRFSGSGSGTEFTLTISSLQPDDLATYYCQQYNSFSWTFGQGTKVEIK
Result value: 0.972
